- Stated Conditions: Ebola virus entry assay, reporter ratio channel; Channel type: primary
Calls of active or inactive are those of the source. No rule for the calls is given here.
Assign a class; possible classes are Yes (active), No (inactive)

Check the results log: what was the call for O=C(CBr)Nc1ccc(Cl)cc1C(=O)c1ccccc1F ?
Yes

Then CC1CCCCN1CCCOC(=O)c1ccc(OC2CCCCC2)cc1 (stereo not given) ?
Yes

Item: c1ccc(-c2ccc(C(c3ccccc3)n3ccnc3)cc2)cc1 (stereo not given)
Yes

New cases:
Which result was noted for this compound in the test: CCCOc1ccc(C(=O)OCCN(CC)CC)cc1N
Yes

Okay, and Cc1ccc(/C=N/n2c(-c3ccccc3)csc2=S)cc1 ?
No

* * *

- Stated Conditions: Ebola virus entry assay, ratio channel
Calls of active or inactive are those of the source. How the calls were made is not given here.
Field 'call' accepts Yes = active, No = inactive

Example entries and their recorded answers appear below.
Give the logged outcome of this assay for the following compound: CC(C)NC(=O)c1ccc(C=O)cc1
No

Another compound to look at: C[C@@H](O)[C@H]1C(=O)N2C(C(=O)O)=C([C@H]3CCCO3)S[C@H]12
No

How about O=C1NC(=O)[C@@]2(CCOc3ccc(F)cc32)N1 ?
No

What do we get for CC(NC(CCc1ccccc1)C(=O)O)C(=O)N1C(=O)N(C)CC1C(=O)O (stereo unspecified) ?
No

Entry CCC(=O)c1ccc(O)cc1 please
No

Please give the result for CCCCCCCCCCCC[N+](C)(C)Cc1ccccc1 too.
Yes

Others:
What was the test verdict on O=C1CC2(CCCC2)CC(=O)N1CCNCC1COc2ccccc2O1 (stereo unspecified) ?
No

Follow-up item: CCC(C(=O)OCCOCCN(CC)CC)c1ccccc1 (stereo unspecified)
Yes

Also need CN1CCN(CCC(=O)N2c3ccccc3Sc3ccc(C(F)(F)F)cc32)CC1 , thanks.
Yes

Now this one: C#C[C@]1(OC(C)=O)CC[C@H]2[C@@H]3CCC4=C/C(=N/O)CC[C@@H]4[C@H]3CC[C@@]21CC
No

Consider next the compound Cc1ccc(N(CC2=NCCN2)c2cccc(O)c2)cc1 in the same way.
Yes

// same read-out, input: CC(C)COCC(CN(Cc1ccccc1)c1ccccc1)N1CCCC1 (stereo unspecified)
Yes

Same thing, different compound: CCN(CC)Cc1nccn1-c1ccc([N+](=O)[O-])cc1C(=O)c1ccccc1Cl
No

Try COc1cccc(N(C)C(=S)Oc2ccc3c(c2)CCCC3)n1 next.
Yes

Quick one: CCCCCCCCCCCCCCCCC(C(=O)O)C(O)(CC(=O)O)C(=O)O (stereo unspecified)
No

And for CCCCN(CCCC)CCC(O)c1cc2c(Cl)cc(Cl)cc2c2cc(C(F)(F)F)ccc12 (stereo unspecified) ?
Yes

Next compound: Clc1ccccc1-c1nc(-c2ccncc2)no1
No

Also OCc1cc(C(O)CNCCCCCCOCCCCc2ccccc2)ccc1O (stereo unspecified) ?
Yes

How about this compound: Cc1ccc2c(Br)cc(Br)c(O)c2n1
Yes

Another compound to check: C[C@@H]1CCN(C(=O)[C@H](CCCN=C(N)N)NS(=O)(=O)c2cccc3c2NC[C@H](C)C3)[C@@H](C(=O)O)C1
No

What do we get for CC(C)(C)c1ccc(C(=O)CCCN2CCC(OC(c3ccccc3)c3ccccc3)CC2)cc1 ?
Yes

Consider next the compound CCCCNc1ccc(C(=O)OCCN(C)C)cc1 in the same way.
Yes

Another compound to look at: CC1(C)O[C@@H]2C[C@H]3[C@@H]4CCC5=CC(=O)CC[C@]5(C)[C@@]4(F)[C@@H](O)C[C@]3(C)[C@]2(C(=O)CCl)O1
Yes

Next compound: COc1cc(OC)cc(OC)c1
No

* * *

- Assay Info: qHTS of pediatric cancer cell lines to identify multiple opportunities for drug repurposing: Primary screen for NB1643 cells (AID 1347099);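 also: plate controls were DMSO neutral control for no effect and bortezomib positive control for full effect; nearly all actives have a fitted effect of over 50% in size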
- Stated Conditions: NB1643 neuroblastoma viability, CellTiter-Glo luminescence, 48 h; series mostly up to 46 µM
Inconclusive results are not listed. Activity calls are given as the source filed them. The call rests on the fitted dose curve; in most records, active means well fitted cell-killing curve with a large enough effect; inconclusive means small, poorly fitted or top-dose-only effect; inactive means no such curve, though single readings can be large or run the other way.
# valid calls are yes = active, no = inactive; nothing else

// below: answered molecules
Which outcome was entered for the molecule C[C@]12CC[C@H]3[C@@H](CCC4=CC(=O)CC[C@@]43C)[C@@H]1CC[C@@H]2C(=O)O in this test?
no

Next: COc1ccc2[nH]cc(CCN(C(C)C)C(C)C)c2c1
no

New cases:
# lookup: test call for C[C@]12Cc3nonc3C[C@@H]1CC[C@@H]1[C@@H]2CC[C@@]2(C)[C@H]1CC[C@]2(C)O
no

What would you report for COP(=O)(OC)OC=C(Cl)Cl ?
no

Moving on to the next molecule: CNC(C)Cc1ccccc1OC (stereo not given)
no

Request: CN(C)CCc1c[nH]c2ccc(O)cc12
no

* * *

- Stated Conditions: Ebola virus entry assay, blue channel fluorescence
The source made the active and inactive calls. How the calls were made is not given here.
Hi! Could you answer with just one of these? active, inactive

Worked cases, answers included:
Name the outcome recorded for CC(C)OC(=O)C(C(=O)OC(C)C)=C1SC=CS1 in the assay.
active

Follow-up entry: CCN(CC)CC(=O)Nc1c(C)cccc1C
inactive

What do you get for CCCCN(CCCC)CCC(O)c1cc2c(Cl)cc(Cl)cc2c2cc(C(F)(F)F)ccc12 (stereo not given) ?
active

Now the compound CC1(c2ccccc2)OC(C(=O)O)=CC1=O (stereo not given)
inactive

Another compound: O=C1Nc2ccccc2C1(c1ccc(O)cc1)c1ccc(O)cc1
inactive

Likewise for CCn1cc(C(=O)O)c(=O)c2cc(F)c(N3CCN(C)CC3)cc21 ?
inactive

Okay, and COC(=O)C1=C(C)NC(C)=C(C(=O)OCCN2CCN(C(c3ccccc3)c3ccccc3)CC2)C1c1cccc([N+](=O)[O-])c1 (stereo not given) ?
active

Field entry: Cc1cc(CC(=O)O)n(C)c1C(=O)c1ccc(Cl)cc1
inactive

Same lookup for Cc1[nH]c(C)c(Cl)c(=O)c1Cl , please.
inactive

Ok, now O=C(Cn1ccnc1[N+](=O)[O-])NCCO
inactive

Next:
Which result was noted for this compound in the test: COc1cc(C[C@@H](C)N)c(OC)cc1Br
active

How about this compound: C[C@H](N)C(=O)N[C@@H](C)C(=O)NC1[C@H]2CN(c3nc4c(cc3F)c(=O)c(C(=O)O)cn4-c3ccc(F)cc3F)C[C@@H]12 (stereo not given in full)
inactive

* * *

- System: Dd2
- Assay Info: qHTS profiling for inhibitors of Plasmodium falciparum proliferation (AID 504749); also: nearly all actives have a fitted effect of over 60% in size
- Stated Conditions: P. falciparum in erythrocytes, SYBR Green DNA, 72 h; series mostly up to 28.7 µM
Inconclusive results are not listed. The source made the active and inactive calls. The call rests on the fitted dose curve; in most records, active means well fitted inhibition curve with a large enough effect; inconclusive means small, poorly fitted or top-dose-only effect; inactive means flat fitted curve, though single readings scatter.
Your reply should match one of these outcome classes. active, inactive

In this assay, the call recorded for CCCCCCCCCCCC[N+](C)(C)CCOc1ccccc1 was what?
active

Others:
// param item: NC(=O)CN1CCCC1=O ; yields the recorded call
inactive

Try this compound too: NCc1cccnc1
inactive

Let us now turn to CCCCCCCCC(=O)NCc1ccc(O)c(OC)c1
inactive

Entry to check: CCC(=O)O[C@H]1CC[C@H]2[C@@H]3CCC4=CC(=O)CC[C@]4(C)[C@H]3CC[C@]12C
inactive

Field entry: COc1ccc(C(=O)N2CCCC2=O)cc1
inactive

Entry COC(=O)C1=CCCN(C)C1 please
inactive

// next record C[C@H]1C(=O)O[C@@H]2CCN3CC=C(COC(=O)[C@](C)(O)[C@]1(C)O)[C@H]23
inactive

Can you check C[C@]12CC[C@H]3[C@@H](CC=C4C[C@@H](O)CC[C@@]43C)[C@@H]1CC[C@@H]2O next?
inactive

Same question, CNC(=O)NC(O)C(Cl)(Cl)Cl (stereo not drawn) this time
inactive

# repeat for C[C@]12C=CC(=O)C=C1CC[C@@H]1[C@@H]2CC[C@@]2(C)[C@H]1CC[C@]2(C)O
inactive

Try this compound next: O=C(CCCN1CCC(n2c(=O)[nH]c3ccccc32)CC1)c1ccc(F)cc1
active

Same lookup for CC[C@]1(O)CC[C@H]2[C@@H]3CCC4=CCCC[C@@H]4[C@H]3CC[C@@]21C , please.
inactive

* * *

- System: P94_40
- Assay Info: qHTS profiling for inhibitors of Plasmodium falciparum proliferation (AID 504749); also: nearly all actives have a fitted effect of over 60% in size
- Stated Conditions: P. falciparum in erythrocytes, SYBR Green DNA, 72 h; series mostly up to 28.7 µM
Records with an inconclusive call do not appear. Activity calls are given as the source filed them. Calls follow the shape of the dose curve; as a rule, active = well fitted inhibition curve with a large enough effect; inconclusive = small, poorly fitted or top-dose-only effect; inactive = flat fitted curve, though single readings scatter.
Can you answer with just one of these options? 1 (yes) for active, 0 (no) for inactive

Example entries and their recorded answers appear below.
Please let me know the test result on file for CCCCCCCCCCCC[N+](C)(C)CCOc1ccccc1 .
1 (yes)

Record: CCC1(CC)C(=O)NC(=O)NC1=O
0 (no)

Also need c1cc2c(c(N3CCNCC3)c1)OCCO2 , thanks.
0 (no)

Same question, COP(=O)(OC)C(O)C(Cl)(Cl)Cl (configuration not stated) this time
0 (no)

Follow-up entry: COC(=O)C1=CCCN(C)C1
0 (no)

***
I would be grateful if you could indicate the recorded call for NCc1cccnc1 .
0 (no)

Subsequent entry: OC(O)C(Cl)(Cl)Cl
0 (no)

Entry source: PubChem BioAssay (NCATS)
